Biological target: T1, mouse DLL4 expressed on CHO cells (mouse, UniProt Q9JI71 27-686)
T1 construct: whole, on cells; also called mDLL4; CHO-mDLL4
T1 sequence (Q9JI71 27-686): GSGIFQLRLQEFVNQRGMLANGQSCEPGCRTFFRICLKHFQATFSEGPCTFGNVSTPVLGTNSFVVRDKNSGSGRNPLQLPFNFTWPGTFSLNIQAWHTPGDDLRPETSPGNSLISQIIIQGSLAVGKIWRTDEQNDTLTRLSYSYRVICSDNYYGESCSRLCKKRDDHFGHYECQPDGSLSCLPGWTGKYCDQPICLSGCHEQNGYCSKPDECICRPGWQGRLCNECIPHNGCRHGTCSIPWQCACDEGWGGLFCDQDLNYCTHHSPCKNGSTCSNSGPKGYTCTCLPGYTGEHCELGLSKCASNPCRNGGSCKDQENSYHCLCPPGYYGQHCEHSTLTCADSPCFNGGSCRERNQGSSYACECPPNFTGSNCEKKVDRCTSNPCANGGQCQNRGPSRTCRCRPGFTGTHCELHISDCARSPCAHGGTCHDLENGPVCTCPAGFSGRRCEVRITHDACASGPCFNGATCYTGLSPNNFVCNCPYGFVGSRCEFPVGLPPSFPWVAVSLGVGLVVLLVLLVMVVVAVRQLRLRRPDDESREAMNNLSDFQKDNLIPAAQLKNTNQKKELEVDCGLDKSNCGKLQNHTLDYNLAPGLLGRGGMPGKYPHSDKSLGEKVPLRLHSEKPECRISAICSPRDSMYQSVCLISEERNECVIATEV
Assay: competition FMAT, labelled hNotch1-Fc on CHO-mDLL4 cells
Property Measured: IC50 (nM)
Express it in nM; write the number only.

Please review the following examples before continuing.
DLLBII133G05 (VHH, not shown: small tags and cut ends) VHH: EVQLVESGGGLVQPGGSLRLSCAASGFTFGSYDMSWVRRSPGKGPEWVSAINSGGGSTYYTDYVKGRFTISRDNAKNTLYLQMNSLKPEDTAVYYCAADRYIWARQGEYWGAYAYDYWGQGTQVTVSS = 12
DLLBII115A05 (VHH, not shown: small tags and cut ends, parent VHH; also called 115A05 (wt); 115A5) VHH: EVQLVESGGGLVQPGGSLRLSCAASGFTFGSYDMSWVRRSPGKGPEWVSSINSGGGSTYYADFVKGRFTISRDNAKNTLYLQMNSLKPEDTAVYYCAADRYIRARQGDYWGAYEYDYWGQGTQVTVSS = 349

The record that follows has no IC50 shown yet.
Inquiry: Please give the measured IC50 for this binder: DLLBII015 (VHH, not shown: small tags and cut ends) VHH: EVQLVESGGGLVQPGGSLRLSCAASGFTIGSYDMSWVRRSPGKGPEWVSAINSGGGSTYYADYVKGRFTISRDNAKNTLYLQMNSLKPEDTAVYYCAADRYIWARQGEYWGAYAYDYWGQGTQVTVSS
Reply text: 21.2
